System: parental Ba/F3 line
Assay: Viability of parental Ba/F3 cells
Type: cell-based
Details: Mus musculus, BaF3, 72 hours, mean ± SD
pIC50: −log10 of the molar value.
recorded_endpoint: pIC50

compound=CNC(=O)c1cc(Oc2ccc(NC(=O)Nc3ccc(Cl)c(C(F)(F)F)c3)cc2)ccn1 recorded_endpoint=pIC50 result_qualifier== value_observed=5.17
compound=CCN(CC)CCNC(=O)c1c(C)[nH]c(/C=C2\C(=O)Nc3ccc(F)cc32)c1C recorded_endpoint=pIC50 result_qualifier== value_observed=5.47
compound=COc1cc2nccc(Oc3ccc(NC(=O)NC4CC4)c(Cl)c3)c2cc1C(N)=O recorded_endpoint=pIC50 result_qualifier=< value_observed=5.00
compound=COc1cc2c(Nc3ccc(Br)cc3F)ncnc2cc1OCC1CCN(C)CC1 recorded_endpoint=pIC50 result_qualifier== value_observed=5.13
compound=Cc1ccc(C(=O)Nc2ccc(CN3CCN(C)CC3)c(C(F)(F)F)c2)cc1C#Cc1cnc2cccnn12 recorded_endpoint=pIC50 result_qualifier== value_observed=5.99
compound="COc1cc2nccc(Oc3ccc(NC(=O)C4(C(=O)Nc5ccc(F)cc5)CC4)cc3)c2cc1OC [Cabozantinib]" recorded_endpoint=pIC50 result_qualifier== value_observed=5.24
